- SYSTEM: T1, Human PD-1 (ACROBiosystems, Inc., Catalog No. PD1-H5221) (human, UniProt Q15116 25-167)
- T1 construct: Bought recombinant protein; also called huPD1-His; PD-1-his; not shown: His tag of the bought protein (huPD1-His)
- T1 sequence (Q15116 25-167 limits assumed): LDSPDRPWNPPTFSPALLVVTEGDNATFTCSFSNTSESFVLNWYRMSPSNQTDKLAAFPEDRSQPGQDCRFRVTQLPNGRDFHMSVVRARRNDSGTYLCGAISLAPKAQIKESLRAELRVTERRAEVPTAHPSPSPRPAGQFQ
- TEST DETAILS: SPR (Biacore), scFv captured on anti-FLAG, PD-1 as analyte
ASSAY READOUT: koff

{"columns": ["BINDER", "ASSAY READOUT", "RESULT"],
 "data": [
  ["h4B10-3 (VH3-15-Vκ4-1) scFv (scFv, Whole scFv chain with FlagHis tag) scFv: MEVQLVESGGGLVKPGGSLRLSCAASGFTFSTYGMSWVRQAPGKGLEWVATISGGGSNTYYSDSVKGRFTISRDDSKNTLYLQMNSLKTEDTAVYYCARQRDSAWFASWGQGTLVTVSSGGGGSGGGGSGGGGSDIVMTQSPDSLAVSLGERATINCRASENVDDYGVSFMNWYQQKPGQPPKLLIYPASNQGSGVPDRFSGSGSGTDFTLTISSLQAEDVAVYYCQQSKEVPWTFGGGTKLEIKGSGDYKDDDDKGSGHHHHHH", "koff", "0.000617 s⁻¹"]
]}
